test system: HT29; conditions: 72 h, relative to DMSO; 10 µM
Counter-ions that a name gives are not always drawn.
measured endpoint: Relative cell viability (%) (%)
Numbers only, in %.

Before answering, review these 5 worked examples.
{"columns": ["compound", "assay target", "Relative cell viability (%) [%]"],
 "data": [
  ["O=C(N/N=C/c1ccc([N+](=O)[O-])o1)c1ccc(O)cc1 [Nifuroxazide]", "HT29", 43.03],
  ["CC(=O)OCC(=O)NCCCOc1cccc(CN2CCCCC2)c1 [Roxatidine Acetate HCl]", "HT29", 111],
  ["FC(F)(F)c1ccc(CNc2ccc(Cc3c[nH]c4ncc(Cl)cc34)cn2)cn1", "HT29", 54.7],
  ["CCCCCCNC(=O)n1cc(F)c(=O)[nH]c1=O", "HT29", 24.45],
  ["C#Cc1cccc(Nc2ncnc3cc(OCCOC)c(OCCOC)cc23)c1", "HT29", 79.06]
]}

# batch: return Relative cell viability (%) for each of the 3 compounds below
1. CCN(CC)CC#CCOC(=O)C(O)(c1ccccc1)C1CCCCC1 (centres unmarked)
2. CC(C)[C@H]1C(=O)N[C@@H](CCCN=C(N)N)C(=O)NCC(=O)N[C@@H](CC(=O)O)C(=O)N[C@H](Cc2ccccc2)C(=O)N1C [Cilengitide]
3. CC(C)OC(=O)[C@H](C)N[P@](=O)(OC[C@H]1O[C@@H](n2ccc(=O)[nH]c2=O)[C@](C)(F)[C@@H]1O)Oc1ccccc1

-- reply
58.9
61.11
121.8
